- System: Mus musculus
- protocol_notes: Cmax in Swiss Webster mouse at 0.3 mg/kg, po administered as cassette dosing
- Assay type: ADME, organism-based
- Set-up: dose 0.3 mg/kg, route oral
- protocol_conditions: in vivo
property_measured: Cmax (nM)
Just the number please, in nM, no unit attached.

Request: What does the record list as Cmax for CS(=O)(=O)N1CCC(NC(=O)Nc2ccc(OC(F)(F)F)cc2)CC1 ?
Response: 370

* * *

- protocol_notes: Half life in Swiss Webster mouse at 0.3 mg/kg, po administered as cassette dosing
- Format: ADME, organism-based
- Design: dose 0.3 mg/kg, route oral
- protocol_conditions: Swiss Webster, in vivo
Field: class. Source value: half-life. Ranges: lower level = under 6 h, middle level = from 6 h up to 20 h, upper level = 20 h and over

Observe how each entry below is paired with its result.
[[record]]
molecule = "O=C(Nc1ccc(C(F)(F)F)cc1)NC1CCN(C(=O)C2CC2)CC1"
label_value = "middle level"

[[record]]
molecule = "CCCCS(=O)(=O)N1CCC(NC(=O)Nc2ccc(C(F)(F)F)cc2)CC1"
label_value = "middle level"


Request: Dear colleague, I would appreciate it if you could identify the bin for CCCCS(=O)(=O)N1CCC(NC(=O)Nc2ccc(OC(F)(F)F)cc2)CC1 and reply at your convenience.
Response: lower level

Request: Note, next up: CCC(C)C(=O)N1CCC(NC(=O)Nc2ccc(C(F)(C(F)(F)F)C(F)(F)F)cc2)CC1 (stereo unspecified)
Response: lower level

Request: Moving on to the next molecule: CC[C@H](C)C(=O)N1CCC(NC(=O)Nc2ccc(OC(F)(F)F)cc2)CC1
Response: middle level

* * *

Reported Cmax values are given for each entry in this list.
- protocol_notes: Cmax in Sprague-Dawley rat at 0.3 mg/kg, po administered as cassette dosing
- Format: ADME, organism-based
- Parameters: dose 0.3 mg/kg, route oral
- protocol_conditions: in vivo
Respond with the bare value in nM.

Recorded results for 2 compounds are shown here.
[[record]]
compound_string = "CC[C@H](C)C(=O)N1CCC(NC(=O)Nc2ccc(C(F)(F)F)cc2)CC1"
property_measured = "Cmax"
reported_measurement = 790

[[record]]
compound_string = "CC[C@H](C)C(=O)N1CCC(NC(=O)Nc2ccc(OC(F)(F)F)cc2)CC1"
property_measured = "Cmax"
reported_measurement = 297


Request: For the compound shown here, CC(C)C(=O)N1CCC(NC(=O)Nc2ccc(OC(F)(F)F)cc2)CC1 , give the reported Cmax.
Response: 890

Request: Please do the same for CC(C)C(=O)N1CCC(NC(=O)Nc2ccc(C(F)(F)F)cc2)CC1 as well.
Response: 510

* * *

- protocol_notes: Lipophilicity, log P of the compound by shake-flask method
- Assay type: physicochemical
- protocol_conditions: octanol/water
property_measured: logP
Answer field: number only, no words.

Request: What does the record list as logP for O=C(Nc1ccc(C(F)(F)F)cc1)NC1CCN(S(=O)(=O)C2CC2)CC1 ?
Response: 3.39

* * *

- protocol_notes: AUC in Sprague-Dawley rat at 0.3 mg/kg, po administered as cassette dosing
- Format: ADME, organism-based
- Design: dose 0.3 mg/kg, route oral
- protocol_conditions: plasma
property_measured: AUC (µM·h)
I only need the number, in µM·h, no unit after it.

[[record]]
compound_string = "CC[C@H](C)C(=O)N1CCC(NC(=O)Nc2ccc(C(F)(F)F)cc2)CC1"
property_measured = "AUC"
reported_measurement = 5.72

[[record]]
compound_string = "CC(C)C(=O)N1CCC(NC(=O)Nc2ccc(C(F)(F)F)cc2)CC1"
property_measured = "AUC"
reported_measurement = 7.3

[[record]]
compound_string = "CC[C@H](C)C(=O)N1CCC(NC(=O)Nc2ccc(OC(F)(F)F)cc2)CC1"
property_measured = "AUC"
reported_measurement = 2.59


With those in mind, consider the next compound.
Request: Given the entry CC(C)C(=O)N1CCC(NC(=O)Nc2ccc(OC(F)(F)F)cc2)CC1 , report its measured AUC.
Response: 12
